Some compounds, each annotated with its measured LD50 at 168 h.
# assay-name: in vivo
# condition-notes: mouse, oral, ddY male mice, 7 days of observation
Numeric answer only, unit mg/kg assumed.

Enquiry: State the recorded LD50 at 168 h for this entry: Cc1cccc(Nc2ccccc2C(=O)OCc2ccccn2)c1C [drawing 4]
Return: 4420

Enquiry: Quick one: Cc1cccc(Nc2ccccc2C(=O)OCCCc2cccnc2)c1C [drawing 8]
Return: 3750

Enquiry: Cc1cccc(Nc2ccccc2C(=O)OCc2cccnc2)c1C [drawing 5] , same question.
Return: 3820

Enquiry: Entry Cc1cccc(Nc2ccccc2C(=O)OCCc2ccccn2)c1C [drawing 7] please
Return: 4100

Proceed to the following item.
Enquiry: Any idea what its LD50 at 168 h is? The compound is Cc1cccc(Nc2ccccc2C(=O)OCc2ccncc2)c1C [drawing 6]
Return: 4850

---

# System: pain induced by the brewer's yeast
# assay-name: Evaluation Test Example 7 (Analgetic Activity), Randall-Selitto method
# Assay type: in vivo, rat
# condition-notes: topical, 2.5 mg/paw, 5 hours after injection of brewer's yeast
metric: Inhibition % (pain induced by brewer's yeast) (%)
Write it as a number; the unit % goes unstated.

Below: 4 compounds and their reported Inhibition % (pain induced by brewer's yeast).
Enquiry: So what does the record say about Inhibition % (pain induced by brewer's yeast) for Cc1cccc(Nc2ccccc2C(=O)O)c1C [N-(2,3-xylyl)anthranilic acid, reference compound] ?
Return: 32.8

Enquiry: Next entry: Cc1cccc(Nc2ccccc2C(=O)OCc2ccccn2)c1C
Return: 53.6

Enquiry: Could you do the same for CC(C)Cc1ccc(C(C)C(=O)OCc2ccccn2)cc1 (stereo not drawn) [reference compound] , please?
Return: 39.2

Enquiry: Now give it for Cc1cccc(Nc2ccccc2C(=O)OCc2ccco2)c1C [2-furanmethyl-N-(2,3-xylyl)anthranilate] too.
Return: 56.5

New cases:
Enquiry: // lookup Inhibition % (pain induced by brewer's yeast) for Cc1cccc(Nc2ccccc2C(=O)OCCc2ccccn2)c1C
Return: 45.5

Enquiry: Please answer likewise for Cc1cccc(Nc2ccccc2C(=O)OCc2cccnc2)c1C
Return: 48.3

---

# assay-name: in vivo
# condition-notes: mouse, in vivo; oral, ICR female mice
metric: LD50 (mg/kg)
Report the figure in mg/kg without appending any unit label.

Enquiry: Item under review: Cc1cccc(Nc2ccccc2C(=O)OCc2ccco2)c1C [2-furanmethyl-N-(2,3-xylyl)anthranilate] . Reported LD50?
Return: 5480
